A compilation of published pIC50 results with Xanthine dehydrogenase/oxidase (Bos taurus, UniProt P80457).
Sequence (P80457 whole entry): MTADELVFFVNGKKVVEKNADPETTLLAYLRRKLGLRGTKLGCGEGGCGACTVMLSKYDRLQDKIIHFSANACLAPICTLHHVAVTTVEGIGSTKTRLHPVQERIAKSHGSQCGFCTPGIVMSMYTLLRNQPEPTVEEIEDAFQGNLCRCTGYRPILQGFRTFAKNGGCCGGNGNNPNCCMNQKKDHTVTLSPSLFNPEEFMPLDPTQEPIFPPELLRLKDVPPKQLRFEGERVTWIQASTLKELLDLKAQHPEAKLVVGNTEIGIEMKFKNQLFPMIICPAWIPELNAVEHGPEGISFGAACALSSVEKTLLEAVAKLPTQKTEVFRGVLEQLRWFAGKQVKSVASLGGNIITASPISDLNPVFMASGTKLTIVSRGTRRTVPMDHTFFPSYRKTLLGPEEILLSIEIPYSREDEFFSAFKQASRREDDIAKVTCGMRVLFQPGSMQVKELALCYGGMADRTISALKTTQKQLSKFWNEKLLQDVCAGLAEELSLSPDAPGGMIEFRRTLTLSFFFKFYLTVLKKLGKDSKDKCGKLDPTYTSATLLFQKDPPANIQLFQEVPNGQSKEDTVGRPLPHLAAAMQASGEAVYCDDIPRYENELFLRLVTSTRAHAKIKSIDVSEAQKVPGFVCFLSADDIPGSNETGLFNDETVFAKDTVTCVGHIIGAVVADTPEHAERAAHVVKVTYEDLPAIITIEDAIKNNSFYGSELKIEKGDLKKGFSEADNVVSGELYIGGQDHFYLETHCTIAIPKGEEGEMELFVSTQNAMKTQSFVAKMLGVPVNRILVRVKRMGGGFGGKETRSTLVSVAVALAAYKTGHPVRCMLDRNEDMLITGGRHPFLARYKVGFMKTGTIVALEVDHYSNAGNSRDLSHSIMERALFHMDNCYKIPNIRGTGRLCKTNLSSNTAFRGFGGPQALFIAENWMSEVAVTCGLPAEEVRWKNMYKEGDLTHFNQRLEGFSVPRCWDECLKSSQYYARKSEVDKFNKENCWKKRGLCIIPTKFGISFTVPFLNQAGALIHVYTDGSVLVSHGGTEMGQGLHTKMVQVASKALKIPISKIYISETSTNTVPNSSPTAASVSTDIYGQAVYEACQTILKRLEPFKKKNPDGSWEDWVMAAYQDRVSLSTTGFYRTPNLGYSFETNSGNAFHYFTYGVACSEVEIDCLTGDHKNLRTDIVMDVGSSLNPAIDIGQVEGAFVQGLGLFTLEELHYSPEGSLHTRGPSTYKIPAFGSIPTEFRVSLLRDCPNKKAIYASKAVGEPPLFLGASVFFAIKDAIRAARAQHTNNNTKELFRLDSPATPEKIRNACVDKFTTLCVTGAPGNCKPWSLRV
pIC50: −log10 of the molar value.

# count of solved cases: 3
molecule: CC(C)COc1ccc(-n2cc(C(=O)O)c(C(F)(F)F)n2)cc1C#N
parameter: pIC50
result: < 7.00

molecule: O=c1cc(-c2cccc(Cl)c2)oc2ccc3ccccc3c12
parameter: pIC50
result: < 4.70

molecule: O=C(/C=C/c1ccc(O)c2oc(-c3ccc(O)c(O)c3)cc12)N1CCOCC1
parameter: pIC50
result: < 4.00

I would be grateful if you could provide pIC50 for each of the following entries.
1. O=c1cc(-c2cccc(Cl)c2Cl)oc2c1ccc1ccccc12
2. O=c1cc(-c2cc([N+](=O)[O-])cc([N+](=O)[O-])c2)oc2c1ccc1ccccc12
3. C=C1CC[C@]2(C(=O)O[C@H]3O[C@@H](CO[C@@H]4O[C@H](CO)[C@@H](O[C@@H]5O[C@@H](C)[C@H](O)[C@@H](O)[C@H]5O)[C@H](O)[C@H]4O)[C@H](O)[C@@H](O)[C@@H]3O)CC[C@]3(C)C(=CC[C@@H]4[C@@]5(C)CC[C@H](O[C@H]6OC[C@@H](O)[C@@H](O[C@H]7OC[C@@H](O)[C@@H](O)[C@@H]7O[C@@H]7OC[C@@H](O)[C@H](O[C@H]8OC[C@@H](O)[C@@H](O)[C@@H]8O)[C@H]7O)[C@@H]6O)C(C)(C)[C@@H]5CC[C@]43C)[C@@H]2C1
4. N#Cc1nc(-c2ccncc2)[nH]c1C#N
5. CC(=O)NC(CC(=O)c1cccc2ccccc12)c1cccc(Br)c1 (stereo unspecified)
6. CN(C)CCOc1ccc(-n2cc(C(=O)O)cn2)cc1C#N

// result
1. < 4.70
2. < 4.70
3. < 4.00
4. 7.70
5. 4.37
6. 6.15

I would be grateful if you could provide pIC50 for each of the following entries.
1. O=c1cc(-c2cccc(Cl)c2)oc2c1ccc1ccccc12
2. COc1cccc(Cn2cc(COc3ccc(F)cc3C=O)nn2)c1

// result
1. < 4.70
2. 6.15

----------
A compilation of published pIC50 results with Xanthine dehydrogenase/oxidase (Bos taurus).
Answers are plain numbers, as −log10 of the molar value.

molecule: Cn1c2ccccc2c2cc(/C=C/C(=O)c3cccc(NC(=O)C4CC4)c3)ccc21
pIC50: 5.37

I would be grateful if you could provide pIC50 for each of the following entries.
1. CC(=O)OCC1=CC[C@@H]2C(C(=O)Nc3cccc(F)c3)=CO[C@@H](O[C@@H]3O[C@H](COC(C)=O)[C@@H](OC(C)=O)[C@H](OC(C)=O)[C@H]3OC(C)=O)[C@H]12
2. Clc1cc(-c2n[nH]c(-c3ccncc3)n2)ccn1
3. COc1ccc(Nc2ncnc3c2C(c2cccc(C)c2)C2=C(CCCC2=O)O3)cc1 (stereo not given)
4. Cc1cc(-c2nnc(-c3ccc(OCC(=O)O)c(C#N)c3)[nH]2)ccn1
5. CC(=O)NC(CC(=O)c1cc(Cl)cs1)c1ccc(Cl)cc1 (stereo not given)
6. Cc1ccccc1Cn1cc(COc2ccccc2C=O)nn1

// result
1. 4.54
2. 8.10
3. 4.46
4. 6.96
5. 4.66
6. 5.79

----------
A compilation of published pIC50 results with Xanthine dehydrogenase/oxidase (Bos taurus).
Give bare numbers, as −log10 of the molar value.

# count of solved cases: 5
compound: Oc1cc(O)n2ncc(-c3cccc4ccccc34)c2n1
pIC50: 7.60
--
compound: CCCCCCCCOc1ccc(-c2nc(C)c(C(=O)O)n2O)cc1C#N
pIC50: 5.92
--
compound: N#Cc1cn(-c2ccc(C(=O)O)cc2)cc1-c1ccccc1OCCOc1ccccc1
pIC50: 7.33
--
compound: C=CCOc1ccc(-c2nc(-c3cccnc3)cn2O)cc1C#N
pIC50: 5.02
--
compound: O=[N+]([O-])c1cnc(-c2ccncc2)[nH]1
pIC50: 6.46

I would be grateful if you could provide pIC50 for each of the following entries.
1. CC(C)COc1ccc(-c2nccc(N)n2)cc1C#N
2. COc1ccc(Nc2ncnc3c2C(c2ccc(F)cc2)c2c(c(=O)oc4ccccc24)O3)cc1 (centres undefined)
3. O=c1cc(-c2ccccc2Br)oc2c1ccc1ccccc12
4. COc1ccc(-c2ccc(-n3cnc(C(=O)O)c3)cc2C#N)cc1
5. COC(=O)C1=COC(OC(=O)NC(C)(C)C)[C@@H]2C(COC(=O)NC(C)(C)C)=CC[C@H]12 (some centres undefined)
6. COc1ccc(Nc2ncnc3c2C(c2ccccc2OC)C2=C(CCCC2=O)O3)cc1 (centres undefined)

// result
1: 6.58; 2: 4.30; 3: 4.77; 4: 7.46; 5: 3.98; 6: 4.62

----------
A compilation of published pIC50 results with Xanthine dehydrogenase/oxidase (Bos taurus).
Answers are plain numbers, as −log10 of the molar value.

# count of solved cases: 4
structure smiles: CC(C)Cn1cc(COc2ccccc2C=O)nn1
pIC50: 4.67
//
structure smiles: N#Cc1cc(-c2ccnc(N)n2)ccc1OCc1ccc(F)cc1C(F)(F)F
pIC50: 7.10
//
structure smiles: CC(=O)OCC1=CC[C@@H]2C(C(=O)Sc3cccs3)=CO[C@@H](O[C@@H]3O[C@H](COC(C)=O)[C@@H](OC(C)=O)[C@H](OC(C)=O)[C@H]3OC(C)=O)[C@H]12
pIC50: 4.64
//
structure smiles: O=C(/C=C/c1ccccc1O)c1ccccc1
pIC50: 3.84

As a next step, examine the compound that follows.
// query Give its pIC50 value. Item: CC(C)CCn1cc(COc2ccc(F)cc2C=O)nn1
// result 5.67

----------
A compilation of published pIC50 results with Xanthine dehydrogenase/oxidase (Bos taurus).
Numbers only, as −log10 of the molar value.

# count of solved cases: 5
compound: COc1ccc(OC)c(C(CC(=O)c2cccc(NC(C)=O)c2)NC(C)=O)c1 (stereo not drawn)
pIC50: 4.36

compound: CC(C)OC(=O)/C=C/c1ccc(O)c2oc(-c3ccc(O)c(O)c3)cc12
pIC50: 4.62

compound: CC(C)COc1ccc(-c2ncccn2)cc1C#N
pIC50: 5.79

compound: COc1c(-c2ccc(O)c(O)c2)oc2cc(O)cc(O)c2c1=O
pIC50: 4.50

compound: CCCCn1cc(COc2cc(F)ccc2C=O)nn1
pIC50: 5.44

As a next step, examine the compound that follows.
// query Give its pIC50 value. Item: O=C1CC(c2ccc(O)c(O)c2)Oc2c1c(O)cc(O)c2[C@@H]1C(=O)c2c(O)cc(O)cc2O[C@H]1c1ccc(O)cc1 (stereo partly drawn)
// result 4.65

----------
A compilation of published log10 of IC50 results with Xanthine dehydrogenase/oxidase (Bos taurus).
Hey, these are logged values: log10 of IC50, nM being the unit before logging.

compound: N#Cc1cc(-c2ncc(C(=O)O)c(=O)[nH]2)ccc1OCc1ccc(Br)cc1
log10 of IC50: 1.47
//
compound: CC(C)COc1ccc(-c2ccnc(N)n2)cc1C#N
log10 of IC50: 1.90
//
compound: COC(=O)C1=COC(OC(=O)Nc2ccc(C)cc2)[C@@H]2C(COC(=O)Nc3ccc(C)cc3)=CC[C@H]12 (stereo partly drawn)
log10 of IC50: 4.87
//
compound: COc1ccc(-c2cc(=O)c3c(O)cc(O)cc3o2)cc1
log10 of IC50: 4.15
//
compound: CCCCCOc1ccc(NC(=O)c2ccncc2)cc1C#N
log10 of IC50: 3.48
//
compound: N#Cc1cc(-c2cc(C(=O)O)no2)ccc1OCc1ccccc1
log10 of IC50: 2.77
//
compound: CC(C)COc1ccc(-n2cnc(C(=O)O)c2)cc1C#N
log10 of IC50: 1.98
//
compound: CC(C)COc1ccc(-c2n[nH]c(-c3ccnc(C#N)c3)n2)cn1
log10 of IC50: 2.77
//
compound: N#Cc1cc(NC(=O)c2ccccn2)ccc1OCc1ccccc1
log10 of IC50: 4.35
//
compound: N#Cc1cc(-c2cc(=O)[nH]c(N)n2)ccc1OCC1CCC(C(=O)O)CC1 (stereo not drawn)
log10 of IC50: 0.95

As a next step, examine the compound that follows.
// query Give its log10 of IC50 value. Item: CC(=O)OCC1=CC[C@@H]2C(C(=O)Nc3ccc(Br)c4ccccc34)=CO[C@@H](O[C@@H]3O[C@H](COC(C)=O)[C@@H](OC(C)=O)[C@H](OC(C)=O)[C@H]3OC(C)=O)[C@H]12
// result 3.62
